The entries below come with measured melting point values attached.

>>> result("CCCOc1ccc(-c2ncc(C#N)cn2)cc1")
"193 to 194 °C"

Let us examine a further case.
Entry under test: CCOC(=O)c1oc2cccc(C(C)OC)c2c1C (stereo not given) . Its melting point was 67 to 69 °C

###

RESULT TYPE: melting point

Record excerpt, results attached:
>>> result("C=CCN(C1=NCCN1C)c1c(Cl)cccc1Cl")
"59 to 61 °C"
>>> result("Nc1c(Cl)cc(C(O)CNCCCCCCSCCc2ccccn2)cc1Cl (stereo unspecified)")
"83 to 84 °C"

Entry under test: O=C(O)c1nc(-c2ccc(-c3ccccc3)cc2)nc2ccccc12 . Its melting point was 175 to 176 °C

Entry under test: CC(C)(C)c1ccc(S(=O)(=O)N2c3ccccc3C[C@H]2C(=O)NCc2ccc(OCCC(=O)O)cc2)cc1 . Its melting point was 75 °C

Entry under test: COc1cc2ncn([C@H](C)[C@](O)(Cn3cncn3)c3ccc(F)cc3F)c(=O)c2cc1OC . Its melting point was 157 to 159 °C

Entry under test: CC1(C)Oc2ccc(Br)cc2C(Oc2ccc(O)nn2)C1(C)O (stereo unspecified) . Its melting point was 242 °C

Entry under test: Cc1cc(OCC(=O)Nc2cc(C(=O)O)ccc2Cl)ccc1C(C)C . Its melting point was 174 to 175 °C

Entry under test: CC(C=CC=C(C)C=CC1=C(C)C(=O)CCC1(C)C)=CC=CC=C(C)C=CC=C(C)C=CC1=C(C)C(=O)CCC1(C)C . Its melting point was 205 to 207 °C

Entry under test: O=C1SC[C@@H](CO)N1Cc1ccccc1 . Its melting point was 87 to 90 °C

Entry under test: CC(=O)NNC(=O)c1ccc2occc2c1 . Its melting point was 145 to 146 °C

###

The entries below come with measured melting point values attached.

>>> result("Nc1nc(Cn2ncc3cc(C(=O)NC[C@H](NS(=O)(=O)c4cccc5ccccc45)C(=O)O)ccc32)cc(=O)[nH]1")
"94 to 95 °C"
>>> result("CCOC(=O)c1ccccc1-c1cc(-c2cccc(C(F)(F)F)c2)no1")
"28 to 30 °C"

Entry under test: CCOC(=O)N1CCC(=C2c3ccc(Cl)cc3CCc3c(On4nnc5ccccc54)ccnc32)CC1 . Its melting point was 182 to 184 °C

Entry under test: Cc1ccnc2ccc(C(=O)c3ccc(Cl)cc3)cc12 . Its melting point was 114 °C

Entry under test: NS(=O)(=O)c1ccc(CCN2C(=O)c3ccccc3C2(O)c2ccccc2)cc1 (centres undefined) . Its melting point was 225 °C

###

RESULT TYPE: melting point

Record excerpt, results attached:
>>> result("CC(C)(C(N)=O)c1ccc(Br)cc1")
"139 to 141 °C"
>>> result("C=C(C)COc1ccc2c(C)cc(=O)oc2c1C(=O)C=Cc1cc(OC)c(OC)c(OC)c1")
"128 to 130 °C"
>>> result("CON(C(=O)c1cn(C)nc1C(F)(F)F)C(CF)Cc1c(Cl)cc(Cl)cc1Cl (centres undefined)")
"131 to 133 °C"
>>> result("CCCc1c(OCCCOc2ccc(Sc3ccccc3CC(=O)O)cc2)ccc(C(C)=O)c1O")
"123 to 124 °C"
>>> result("CS(=O)(=O)NCCc1ccc2c(c1)C(=O)c1ccccc1CO2")
"104 to 106 °C"
>>> result("COC(=O)c1ccc(Cn2ncc3ccc(N)cc32)cc1")
"131 to 132 °C"
>>> result("Nc1[nH]nc(-c2ccc(F)cc2)c1-c1ccncc1")
"> 250 °C"
>>> result("Cc1cc(C)c2ncc(NC(=O)C=Cc3ccc(O)cc3)c(-c3ccccc3Cl)c2c1")
"228 to 230 °C"

Entry under test: O=C1N=C(N2CCOCC2)SC1=Cc1cc(-c2ccc(O)c(C34CC5CC(CC(C5)C3)C4)c2)c(O)cc1O . Its melting point was 306 to 310 °C

###

The entries below come with measured melting point values attached.

>>> result("Cn1c(-c2ccc(-c3ccccn3)cc2)c(C(=O)N2CCC(OCC(=O)O)CC2)c(=O)n1-c1ccc(C#N)cc1")
"156 to 159 °C"

Entry under test: Cc1cc(C)c2cccc(OCc3c(Cl)ccc(S(=O)(=O)N4CCC[C@H]4C(=O)N4CCN(C(=O)c5cccc(C=NN)c5)CC4)c3Cl)c2n1 . Its melting point was 158 °C

Entry under test: C[Si](C)(C)c1ccc2c(c1)C(CN1CCCCC1)c1cc([Si](C)(C)C)ccc1-2 . Its melting point was 107 to 108 °C

Entry under test: Cc1ccc(C=Nc2cc(F)ccc2C(=O)O)cc1 . Its melting point was 144 to 145 °C

Entry under test: CCCCCC(O)CNC (stereo unspecified) . Its melting point was 40 to 43 °C

Entry under test: O=C(NC1CN(C(=O)Nc2ccc(OC(F)(F)F)c(Cl)c2)N=C1c1ccc(Br)cc1)c1ccc(Cl)cc1 (stereo unspecified) . Its melting point was > 200 °C

Entry under test: CC(C)(C=O)C(=O)C(C)(Cc1ccc(C(C)(C)C)cc1)C(=O)O (stereo unspecified) . Its melting point was 116 to 118 °C

Entry under test: Cn1c2ccc([N+](=O)[O-])cc2c2c3c(ccc21)C(=O)OC3=O . Its melting point was > 300 °C

Entry under test: CC(=O)c1noc2ccccc12 . Its melting point was 30 to 32 °C

Entry under test: C=CCON(C1=NCCN1)c1c(F)cccc1Br . Its melting point was 141 °C

Entry under test: N#Cc1ccccc1N1CCN(CC(=O)Nc2ccccc2)CC1 . Its melting point was 137 to 138 °C

Entry under test: CCc1noc(-c2cn(-c3ccccc3OCc3ccc(Cl)cc3)cn2)n1 . Its melting point was 88 to 89 °C

Entry under test: Cc1ccc2c(Cc3nc4c(F)c(F)cc(F)c4s3)cn(CC(=O)O)c2c1 . Its melting point was 211 to 213 °C

Entry under test: CCCc1noc(-c2ccc(N3CCN(C(=O)c4ccccc4C(F)(F)F)CC3)nn2)n1 . Its melting point was 226 °C

Entry under test: Cc1cc2ncnn2nc1OCCCC(C)(C)CCS(N)(=O)=O . Its melting point was 154 to 155 °C

Entry under test: NC(=O)OCC1COC(C(F)(F)Cl)(C(F)(F)Cl)O1 (stereo unspecified) . Its melting point was 56 to 57 °C

Entry under test: COc1cc(O)c2c(c1)OC(C(C)(C)C=C1N=C(c3ccccc3)OC1=O)CC2=O (stereo unspecified) . Its melting point was 147 to 149 °C

Entry under test: CCOC(=O)c1cnn2c(-c3cccc(N(CC)C(=O)OC)c3)ccnc12 . Its melting point was 117 °C

Entry under test: Cc1cc([N+](=O)[O-])c(NC(C)C(=O)N(C)O)c([N+](=O)[O-])c1 (stereo unspecified) . Its melting point was 171 to 172 °C

Entry under test: CC(C)(C)c1cc(Sc2n[nH]c(=S)o2)cc(C(C)(C)C)c1O . Its melting point was 129 to 131 °C

Entry under test: CNC(=O)[C@H]1S[C@@H](n2cnc3c(NCc4cccc(I)c4)nc(Cl)nc32)[C@H](O)[C@@H]1O . Its melting point was 140 to 141 °C

Entry under test: N#CC1=C(c2cccs2)Nc2n[nH]cc2C1c1cccc2ccccc12 (stereo unspecified) . Its melting point was 214 °C

Entry under test: Cc1ccc2c(c1)CNC(=O)CC2 . Its melting point was 174 to 175 °C

###

RESULT TYPE: melting point

Entry under test: CN(C)Cc1cc(CSCCNc2ncc([N+](=O)[O-])c(=O)[nH]2)cs1 . Its melting point was 150 to 153 °C

###

The entries below come with measured melting point values attached.
Give the quantity in °C, number only.

>>> result_number("O=C(c1ccccc1F)c1cc(Cl)ccc1C=CCN1C(=O)c2ccccc2C1=O")
117

Let us examine a further case.
Entry under test: CC(C)c1ncc(O)c(O)n1 . Its melting point was 187

###

RESULT TYPE: melting point

Entry under test: O=C(O)[C@H]1CCn2c(cc3ccccc32)C1 . Its melting point was 244 to 246 °C

Entry under test: COC(=O)c1c(C)[nH]c(C)c1C1=CC(=O)c2ccccc2C1=O . Its melting point was 209 to 210 °C

Entry under test: CCCc1nn(C)c2c(=O)[nH]cnc12 . Its melting point was 199 to 200 °C

Entry under test: Cc1cccc(NC(=O)NCC(=O)N(CC(=O)OC2(C)CCCC2)c2ccccc2)c1 . Its melting point was 160 °C

Entry under test: c1ccc(CN2CCc3[nH]c4cccc(-c5ccccc5)c4c3CC2)cc1 . Its melting point was 161 to 163 °C

Entry under test: CCc1c(C(=O)c2cc(C)cc(C)c2)n(C/C=C/CN=[N+]=[N-])c(=O)[nH]c1=O . Its melting point was 119 to 120 °C
